Each recorded value in this set is attributed to patent US20060079453A1.

# assay-target: HLA-DR DRB4*0101 (DR53) (Homo sapiens, UniProt P01903+P13762, G164S)
# measurement-description: biochemical
# Format: binding
# particulars: DRB4 *0101
pIC50: −log10 of the molar value. No end group written: not given here.
pIC50 vs 7: at or above is True, below is False.

1) AKTFLRTLVRGVPEY    False

Answer whether pIC50 of "LRMMNDQLMFLERAF" is greater than or equal to 7.
True

Answer whether pIC50 of "VEALYLVCGERGFFY" is greater than or equal to 7.
True

Answer whether pIC50 of "QCQKLLWQLNGRLEY" is greater than or equal to 7.
False

Answer whether pIC50 of "YILLKKILSSRFNQM" is greater than or equal to 7.
False

Answer whether pIC50 of "CYSLYGTTLEQQYNK" is greater than or equal to 7.
False

Answer whether pIC50 of "PQPFRPQQPYPK" is greater than or equal to 7.
True

Answer whether pIC50 of "TLRLCVQSTHVDIRT" is greater than or equal to 7.
False

Answer whether pIC50 of "IFAIFRQDSSSTGWN" is greater than or equal to 7.
True
